Numbers sourced from patent US11571485B2.

The reader will find reported Frequency/% values listed item by item below.
- System: hippocampus of hAPP-J20 AD and wild-type mice
- testProtocol: In vivo CX7C T7 phage library screen, sequencing of phage recovered from hippocampus
- Design: species or system mouse
- runParameters: Alzheimer's mouse (9-month old J20 hAPP tg); hippocampus 30 min after i.v. phage library; high throughput sequencing of inserts
Express it in %; write the number only.

Example entries begin here.
# substance, Frequency/% (%)
records = [
    ("SSVDKL [SEQ ID NO: 9]", 0.3223),
    ("CEQVRQKRC [SEQ ID NO: 4]", 0.3956),
    ("CESPLLSEC [SEQ ID NO: 11]", 0.316),
]

Form entry - test system: hippocampus of hAPP-J20 AD and wild-type mice; read-out: Frequency/%; substance: CASPRLSKC [SEQ ID NO: 3]
0.7226

Form entry - test system: hippocampus of hAPP-J20 AD and wild-type mice; read-out: Frequency/%; substance: CTKTAK [SEQ ID NO: 10]
0.3191

Form entry - test system: hippocampus of hAPP-J20 AD and wild-type mice; read-out: Frequency/%; substance: CNSKETSRC [SEQ ID NO: 5]
0.3885

Form entry - test system: hippocampus of hAPP-J20 AD and wild-type mice; read-out: Frequency/%; substance: CSKTTE [SEQ ID NO: 2]
0.8549

Form entry - test system: hippocampus of hAPP-J20 AD and wild-type mice; read-out: Frequency/%; substance: CLTDNEETC [SEQ ID NO: 7]
0.3341

Form entry - test system: hippocampus of hAPP-J20 AD and wild-type mice; read-out: Frequency/%; substance: CSGKAQRGC [SEQ ID NO: 100]
0.3349
